# credit: patent US20260274895A1

Assay: in vivo
Settings: male, Swiss Albino, mouse, iv, 1 mg/kg, Plasma concentration
Where a SMILES comes first, the peptide text is derived from it. [ ]: non-standard residue; d: D form. dNMeI = CC[C@@H](C)[C@@H](NC)C(=O)O; NMeL = CN[C@@H](CC(C)C)C(=O)O
endpoint.name: level at 3 h (ng/mL)
Answers are plain numbers, in ng/mL.

Incoming: Query: level at 3 h; subject: CC[C@@H](C)[C@H]1NC(=O)[C@H]([C@@H](C)CC)NC(=O)[C@H](CC(C)C)N(C)C(=O)[C@H]2CCCN2C(=O)[C@@H]([C@H](C)CC)NC(=O)[C@@H]([C@H](C)CC)N(C)C(=O)[C@H](CC(C)C)NC(=O)[C@H]2CCCN2C(=O)[C@@H]2CCCN2C(=O)[C@H](C(C)C)NC(=O)[C@H]2CCCN2C1=O [Design D11.3, VPpL*iip*LIip] (cyclo(I[dI][dP]VP[dP]L[dNMeI][dI][dP][NMeL]))
Outgoing: 512

* * *

Conditions: PAMPA, PAMPA_Papp_Avg (apparent permeability)
Where a SMILES comes first, the peptide text is derived from it. [ ]: non-standard residue; d: D form. NMeL = CN[C@@H](CC(C)C)C(=O)O; NMeA = CN[C@@H](C)C(=O)O; dNMeA = CN[C@H](C)C(=O)O
endpoint.name: Papp (×10⁻⁶ cm/s)
One number for each entry, in ×10⁻⁶ cm/s.

Worked cases, answers included:
Incoming: Can you share its Papp? I mean this compound: CC[C@@H](C)[C@H]1NC(=O)[C@@H](CC(C)C)NC(=O)[C@@H](CC(C)C)NC(=O)[C@H]2CCCN2C(=O)[C@H](CC(C)C)N(C)C(=O)[C@@H](C)N(C)C(=O)[C@@H]2CCCN2C(=O)[C@@H]([C@H](C)CC)NC(=O)[C@@H](C(C)C)NC(=O)[C@@H]2CCCN2C1=O [Design D10.46, PviP*a*Lplli] (cyclo([NMeL][dP][dL][dL][dI]P[dV][dI]P[dNMeA]))
Outgoing: 0.388

Incoming: Please look up its Papp: CC[C@H](C)[C@@H]1NC(=O)[C@H](Cc2ccccc2)NC(=O)[C@H]2CCCN2C(=O)[C@H]([C@@H](C)CC)NC(=O)[C@H](C(C)C)NC(=O)[C@@H](C)NC(=O)[C@H]2CCCN2C1=O (single isomer, unassigned) [Design D7.8.p2, VIpFIpa]
Outgoing: 4.92

Others:
Incoming: Fill in: Papp of CC[C@@H](C)[C@H]1NC(=O)[C@@H]2CCCN2C(=O)[C@@H](Cc2ccccc2)NC(=O)[C@H](CC(C)C)N(C)C(=O)[C@H](C)NC(=O)[C@H]2CCCN2C(=O)[C@@H]2CCCN2C(=O)[C@H](CC(C)C)NC(=O)[C@H](CC(C)C)N(C)C(=O)[C@H](C)N(C)C1=O [Design D10.26, Pi*A*LLPpA*Lf] (cyclo(A[NMeL][dF]P[dI][NMeA][NMeL]LP[dP])) is ___
Outgoing: 0.808

* * *

Settings: PAMPA
Where a SMILES comes first, the peptide text is derived from it. [ ]: non-standard residue; d: D form. NMeL = CN[C@@H](CC(C)C)C(=O)O; dNMeL = CN[C@H](CC(C)C)C(=O)O; NMeV = CN[C@H](C(=O)O)C(C)C; dNMeA = CN[C@H](C)C(=O)O
Returns one of Condition met or Condition not met; Condition met when PAMPA_Papp_Avg (apparent permeability) is >= 1 ×10⁻⁶ cm/s.

Incoming: Does the reported PAMPA_Papp_Avg (apparent permeability) for CC(C)C[C@@H]1C(=O)N(C)[C@H](C)C(=O)N(C)[C@@H](C(C)C)C(=O)N2CCC[C@@H]2C(=O)N[C@H](C)C(=O)N[C@@H](Cc2ccccc2)C(=O)N2CCC[C@@H]2C(=O)N2CCC[C@H]2C(=O)N[C@H](C(C)C)C(=O)N[C@@H](C(C)C)C(=O)N1C [Design D10.29, FpPvV*l*a*Vpa] (cyclo([dV]V[dNMeL][dNMeA][NMeV][dP][dA]F[dP]P)) fall at or above the 1 ×10⁻⁶ cm/s mark?
Outgoing: Condition not met

Incoming: Does the compound CC(C)[C@@H]1NC(=O)[C@H]2CCCN2C(=O)[C@@H](C(C)C)NC(=O)[C@@H]2CCCN2C(=O)[C@H](Cc2ccccc2)NC(=O)[C@H](Cc2ccccc2)NC(=O)[C@H]2CCCN2C(=O)[C@@H](C(C)C)NC(=O)[C@@H]2CCCN2C(=O)[C@H](C(C)C)NC1=O [Design D10.27, PvpVVPvpFF] (cyclo(FFP[dV][dP]VVP[dV][dP])) have recorded PAMPA_Papp_Avg (apparent permeability) that is 1 ×10⁻⁶ cm/s or more?
Outgoing: Condition not met

Incoming: Hello, I need to know if CC(C)C[C@@H]1C(=O)N(C)[C@@H](CC(C)C)C(=O)N2CCC[C@@H]2C(=O)N[C@H](CC(C)C)C(=O)N[C@H](C)C(=O)N2CCC[C@@H]2C(=O)N2CCC[C@H]2C(=O)N[C@@H](C)C(=O)N[C@H](Cc2ccccc2)C(=O)N[C@H](CC(C)C)C(=O)N[C@@H](C(C)C)C(=O)N1C (single isomer, unassigned) [Design D11.9.p2, V*l*LplapPAfl] has measured PAMPA_Papp_Avg (apparent permeability) not below 1 ×10⁻⁶ cm/s. Thanks!
Outgoing: Condition met

Incoming: Exam item: decide whether the reported PAMPA_Papp_Avg (apparent permeability) for CC[C@H](C)[C@@H]1NC(=O)[C@@H](Cc2ccccc2)NC(=O)[C@@H](C)NC(=O)[C@@H](C(C)C)NC(=O)[C@H](CCSC)NC(=O)[C@@H]2CCCN2C(=O)[C@H]2CCCN2C(=O)[C@@H]2CCCN2C(=O)[C@@H](C)N(C)C(=O)[C@@H](CC(C)C)N(C)C1=O [Design D10.45, vafI*l*aPpPM] (cyclo(M[dV][dA][dF]I[dNMeL][dNMeA]P[dP]P)) is at least 1 ×10⁻⁶ cm/s.
Outgoing: Condition not met

Incoming: State whether the measured PAMPA_Papp_Avg (apparent permeability) reaches 1 ×10⁻⁶ cm/s, counting equality as reaching it, for CC[C@H](C)[C@@H]1NC(=O)[C@@H](CC(C)C)NC(=O)[C@@H](C)N(C)C(=O)[C@H](Cc2ccccc2)NC(=O)[C@@H](CC(C)C)NC(=O)[C@@H](C)N(C)C(=O)[C@@H]2CCCN2C(=O)[C@H](C(C)C)NC(=O)[C@H]2CCCN2C(=O)[C@@H]2CCCN2C1=O [Design D10.31, F*alIPpVP*al] (cyclo(F[dNMeA][dL]IP[dP]VP[dNMeA][dL]))
Outgoing: Condition met

***
Incoming: Quick check, PAMPA_Papp_Avg (apparent permeability) >= 1 ×10⁻⁶ cm/s? CC(C)C[C@@H]1C(=O)N(C)[C@H](CC(C)C)C(=O)N[C@H](CC(C)C)C(=O)N[C@@H](C(C)C)C(=O)N2CCC[C@@H]2C(=O)N2CCC[C@H]2C(=O)N[C@H](CC(C)C)C(=O)N[C@@H](C(C)C)C(=O)N1C [Design D8.23, lV*l*llVpP] (cyclo([dL]V[dNMeL][dNMeL][dL]V[dP]P))
Outgoing: Condition met

Incoming: Does the compound CC(C)C[C@H]1NC(=O)[C@@H]2CCCN2C(=O)[C@@H](C(C)C)NC(=O)[C@@H](C)N(C)C(=O)[C@@H](C(C)C)NC(=O)[C@@H]2CCCN2C(=O)[C@@H](Cc2ccccc2)NC(=O)[C@H](CC(C)C)N(C)C(=O)[C@@H](C(C)C)NC1=O [Design D9.9, Pv*avPlv*Lf] (cyclo([NMeL][dF]P[dV][dNMeA][dV]P[dL][dV])) have recorded PAMPA_Papp_Avg (apparent permeability) that is 1 ×10⁻⁶ cm/s or more?
Outgoing: Condition met

* * *

Conditions: PAMPA, PAMPA_Papp_Avg (apparent permeability)
Where a SMILES comes first, the peptide text is derived from it. [ ]: non-standard residue; d: D form. dNMeI = CC[C@@H](C)[C@@H](NC)C(=O)O; NMeF = CN[C@@H](Cc1ccccc1)C(=O)O; NMeL = CN[C@@H](CC(C)C)C(=O)O; dNMeL = CN[C@H](CC(C)C)C(=O)O; dNMeA = CN[C@H](C)C(=O)O
I'd appreciate it if you could supply Papp values for the items below.
Answers are plain numbers, in ×10⁻⁶ cm/s.

Incoming: Given the compound CC[C@@H](C)[C@H]1NC(=O)[C@H](C)NC(=O)[C@@H](CC(C)C)N(C)C(=O)[C@H](CC(C)C)N(C)C(=O)[C@H](C(C)C)NC(=O)[C@@H]2CCCN2C(=O)[C@@H](CC(C)C)N(C)C(=O)[C@@H](C)N(C)C(=O)[C@@H](Cc2ccccc2)NC(=O)[C@@H]2CCCN2C(=O)[C@H]2CCCN2C1=O [Design D11.6, V*L*lAipPf*a*lP] (cyclo([dF][dNMeA][dNMeL]PV[NMeL][dNMeL]A[dI][dP]P)) , what is its reported Papp?
Outgoing: 1.7

Query compound follows.
Incoming: So what's the measured Papp for this one? CC[C@@H](C)[C@H]1NC(=O)[C@H]([C@@H](C)CC)NC(=O)[C@H](Cc2ccccc2)N(C)C(=O)[C@H]2CCCN2C(=O)[C@@H]([C@H](C)CC)NC(=O)[C@@H]([C@H](C)CC)N(C)C(=O)[C@H](CC(C)C)NC(=O)[C@H]2CCCN2C(=O)[C@@H]2CCCN2C(=O)[C@H](C(C)C)NC(=O)[C@H]2CCCN2C1=O [Design D11.4, VPpL*iip*FIip] (cyclo(I[dI][dP]VP[dP]L[dNMeI][dI][dP][NMeF]))
Outgoing: 1.84
